Test summary: chemical genetic growth profiling, strain panel (AID 1159580);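 further: tested at 20 µM; growth read once vehicle control cultures reached saturation at 30 °C; 1 = growth at the plate median or of vehicle wells; lower values mean less growth of the strain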
Settings: S. cerevisiae deletion strains, growth OD, locus YNL322C, strain KRE1 (second series), stronger effect = lower value
Hit rate of the full screen: of about 5,500 compounds, about 2,000 (36%) were called active. Roughly 18% stayed inconclusive and do not appear here. The list shows a part of the results.
For each entry below, report its normalized growth value.
Lab note: jot the number down without any unit.

Problem: Fill in: normalized growth of CCCC(=O)Nc1ccc(OCC(O)CNC(C)C)c(C(C)=O)c1 (stereo not drawn) is ___
Solution: 1.03

Problem: Also CN1CCCCC1c1ccc(-c2cccnc2)nc1 (stereo not drawn) , if possible.
Solution: 0.971

Problem: Query COc1ccc(-c2c(O)c3c(OC)c4c(cc3oc2=O)OC(C)(C)C=C4)cc1 next
Solution: 0.961

Problem: Now the same for Cn1c(=O)[nH]c2nc[nH]c2c1=O
Solution: 1.01

Problem: How about CC(=O)NC1C(O)OC(COS(=O)(=O)O)C(OC2OC(C(=O)O)C(OC3OC(CO)C(OC4OC(C(=O)O)C(O)C(O)C4OS(=O)(=O)O)C(OS(=O)(=O)O)C3NS(=O)(=O)O)C(O)C2OS(=O)(=O)O)C1O (stereo not drawn) ?
Solution: 0.989

Problem: And what about the compound Cn1c(=O)c2c(ncn2C)n(C)c1=O ?
Solution: 0.963

Problem: Can you check COC(=O)C[C@H]1C(C)(C)[C@@H](OC(C)=O)[C@@H]2CC3=C4CC(=O)O[C@@H](c5ccoc5)[C@]4(C)CCC3[C@@]1(C)C2=O (stereo partly drawn) next?
Solution: 1.01

Problem: Let us now turn to CC(=O)OC[C@@]1(O)C[C@@]23CCC4c5ccoc5CC[C@]4(C)C2CC[C@@H]1C3 (stereo partly drawn)
Solution: 1.03

Problem: Please do the same for Cn1c(=O)[nH]c2ncn(C)c2c1=O as well.
Solution: 0.989

Problem: Then CCCc1ncc(C[n+]2ccccc2C)c(N)n1 ?
Solution: 0.961

Problem: Entry to check: CC(=O)Oc1c(C)c(C)c2c(c1C)CCC(C)(CCCC(C)CCCC(C)CCCC(C)C)O2 (stereo not drawn)
Solution: 0.99

Problem: What do we get for CC(C)N1C(=O)c2ccccc2NS1(=O)=O ?
Solution: 0.951

Problem: For COc1cc(OC)c2c(OC)c(-c3ccc4c(c3)OCO4)c(=O)oc2c1 then?
Solution: 0.993

* * *

I'd appreciate it if you could supply normalized growth values for the items below.
Test summary: chemical genetic growth profiling, strain panel (AID 1159580);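 further: tested at 20 µM; growth read once vehicle control cultures reached saturation at 30 °C; 1 = growth at the plate median or of vehicle wells; lower values mean less growth of the strain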
Settings: S. cerevisiae deletion strains, growth OD, locus YKR001C, strain vps1, stronger effect = lower value
About 2,000 (36%) of roughly 5,500 compounds were called active. About 18% were inconclusive and are not listed. The list shows a part of the results.
// print number alone

Problem: Entry CC(=O)OC1CCC2(O)CC1(C)CCC1C2CC1(C)C (configuration not stated) : reported normalized growth = ?
Solution: 0.977

Problem: Okay, and O[C@H]1[C@H](O)[C@@H](O)C2OC[C@H]1O2 ?
Solution: 0.998

Problem: Field entry: CCCC(=O)Nc1ccc(OCC(O)CNC(C)C)c(C(C)=O)c1 (configuration not stated)
Solution: 1.04

Problem: Same read-out for CC(=O)O[C@@H]1C2CC[C@@H]3C1(C[C@@H](O)[C@@]1(O)[C@@H](C[C@H](O)C1(C)C)[C@]3(C)O)C[C@@]2(C)O (some centres not stated) ?
Solution: 0.997

Problem: Same question, O=C1C(=O)c2ccccc2C(O)=C1C1CCC(c2ccc(Cl)cc2)CC1 (configuration not stated) this time
Solution: 0.947

Problem: What would you report for COc1ccccc1OCC(O)COC(N)=O (configuration not stated) ?
Solution: 1

Problem: CC(C)OC(=O)Nc1cccc(Cl)c1 ?
Solution: 0.958

Problem: What about this compound? CNC(=O)N(C)c1nnc(C(C)(C)C)s1
Solution: 1.04

Problem: Check CC(NC(C)(C)C)C(=O)c1cccc(Cl)c1 (configuration not stated) too.
Solution: 1.02

Problem: Same thing, different compound: CC(=O)OC1CCC23CC1(C)CCC2C(C)(C)CC3OC(C)=O (configuration not stated)
Solution: 1.01

Problem: Another compound: CC(=O)NS(=O)(=O)c1ccc(N)cc1
Solution: 0.975

Problem: Then this compound: CON
Solution: 0.989

Source: PubChem BioAssay AID1159580
